- measurement_target: P-gp (ABCB1) (Homo sapiens, UniProt P08183)
- Sequence (P08183 whole entry): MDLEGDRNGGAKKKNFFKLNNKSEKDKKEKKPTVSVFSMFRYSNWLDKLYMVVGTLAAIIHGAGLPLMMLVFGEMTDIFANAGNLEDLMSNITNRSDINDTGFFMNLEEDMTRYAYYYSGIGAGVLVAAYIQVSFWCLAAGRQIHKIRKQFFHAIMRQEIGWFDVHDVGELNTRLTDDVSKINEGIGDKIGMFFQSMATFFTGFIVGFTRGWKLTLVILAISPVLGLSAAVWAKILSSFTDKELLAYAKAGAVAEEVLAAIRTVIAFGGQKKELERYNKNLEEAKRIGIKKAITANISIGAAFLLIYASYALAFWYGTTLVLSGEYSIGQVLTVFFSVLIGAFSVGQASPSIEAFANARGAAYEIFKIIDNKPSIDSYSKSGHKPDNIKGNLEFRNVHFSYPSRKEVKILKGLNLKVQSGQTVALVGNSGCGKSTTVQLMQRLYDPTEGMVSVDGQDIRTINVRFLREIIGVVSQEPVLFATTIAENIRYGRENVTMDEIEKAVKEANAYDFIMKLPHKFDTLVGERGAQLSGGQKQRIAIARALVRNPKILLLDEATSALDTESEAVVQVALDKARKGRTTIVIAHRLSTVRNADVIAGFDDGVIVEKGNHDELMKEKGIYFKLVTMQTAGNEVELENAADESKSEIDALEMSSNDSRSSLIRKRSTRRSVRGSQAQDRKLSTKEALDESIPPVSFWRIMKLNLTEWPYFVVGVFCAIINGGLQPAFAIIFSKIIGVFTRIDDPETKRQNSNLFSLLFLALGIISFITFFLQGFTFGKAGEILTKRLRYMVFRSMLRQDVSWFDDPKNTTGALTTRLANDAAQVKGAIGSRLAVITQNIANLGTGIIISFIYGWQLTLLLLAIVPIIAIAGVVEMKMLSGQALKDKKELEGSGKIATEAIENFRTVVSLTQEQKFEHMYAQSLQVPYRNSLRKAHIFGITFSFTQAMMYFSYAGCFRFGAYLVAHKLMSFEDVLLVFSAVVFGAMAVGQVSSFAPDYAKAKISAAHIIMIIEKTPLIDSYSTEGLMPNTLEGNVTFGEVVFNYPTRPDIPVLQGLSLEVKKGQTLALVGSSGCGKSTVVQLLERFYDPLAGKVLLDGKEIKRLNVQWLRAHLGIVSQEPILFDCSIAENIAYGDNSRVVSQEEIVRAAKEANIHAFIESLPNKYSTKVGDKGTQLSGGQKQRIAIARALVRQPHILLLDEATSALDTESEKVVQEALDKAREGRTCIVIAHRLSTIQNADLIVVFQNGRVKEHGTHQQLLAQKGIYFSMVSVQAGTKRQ
- protocol_text: Inhibition of human Pgp-mediated DNR transport in NIH3T3 cells by microplate assay
- Format: cell-based, Mus musculus
- condition_set: mouse, NIH3T3 cells expressing human P-gp, probe DNR; read-out: Imax
quantity: Emax
I'd appreciate it if you included the unit after the number.

input: Provide measured Emax value, entry: `CC(=O)OC[C@]12[C@H](OC(=O)c3ccccc3)[C@H](OC(=O)c3ccccc3)[C@@H]3[C@@H](OC(C)=O)[C@]1(OC3(C)C)[C@H](C)C[C@H](OC(=O)c1ccccc1)[C@@H]2OC(C)=O`
output: 100%

input: Provide measured Emax value, entry: `CC(=O)OC[C@]12[C@H](OC(=O)c3ccccc3)C(=O)[C@@H]3[C@@H](OC(C)=O)[C@]1(OC3(C)C)[C@H](C)C[C@H](OC(C)=O)[C@@H]2OC(C)=O`
output: 62.3%

input: Provide measured Emax value, entry: `CC(=O)OC[C@]12[C@@H](OC(=O)c3ccccc3)C[C@@H]3[C@@H](OC(C)=O)[C@]1(OC3(C)C)[C@H](C)C[C@H](OC(C)=O)[C@@H]2OC(C)=O`
output: 80.8%

input: Provide measured Emax value, entry: `CC(=O)OC[C@]12[C@H](OC(C)=O)C(=O)[C@@H]3[C@@H](OC(C)=O)[C@]1(OC3(C)C)[C@H](C)C[C@H](OC(C)=O)[C@@H]2OC(C)=O`
output: 100%

input: Provide measured Emax value, entry: `CC(=O)O[C@@H]1[C@H]2[C@@H](OC(=O)c3ccccc3)[C@@H](OC(=O)c3ccccc3)[C@]3(CO)[C@@H](OC(=O)c4ccccc4)[C@@H](OC(=O)c4ccccc4)C[C@@H](C)[C@@]13OC2(C)C`
output: 39.5%
